Data origin: patent US20260297060A1

Experiment: Pharmacokinetics after 21 days dosing in the efficacy study (plasma, tumor and brain concentrations; plasma AUC at steady state), Example 14
Type: in vivo, female BALB/c nude mice
Conditions: mouse, brain, po; 1 mg/kg p.o. TID x 21 days; 4 h; mean ± SEM; read-out: Concentration in Brain
MEASURED_QUANTITY: concentration at 4 h (ng/g)
State the answer as a number, implicitly in ng/g.

Ask: Please give measured concentration at 4 h of the following entry: CCN(C)S(=O)(=O)Nc1ccc(F)c(Oc2ccc3ncn(C4CC5(CCN(C6CC7(C6)CN(c6cc8c(cc6F)c(N6CCC(=O)NC6=O)nn8C)C7)CC5)C4)c(=O)c3c2)c1C#N (stereo not shown)
Reply: 12.4

====

Assay: Pharmacokinetics in female BALB/c nude mice bearing A375 xenografts, 1 day dosing (PK and PD study): plasma, tumor and brain concentrations, AUC
Format: in vivo
Conditions: mouse, plasma, po, 3 mg/kg, 3 mg/kg p.o. BID × 1 day; post 2nd dose; 2 h; read-out: Mean Concentration in Plasma ± SEM
MEASURED_QUANTITY: concentration at 2 h (ng/mL)
Response body: numeric value in ng/mL, unit text excluded.

Ask: Please give measured concentration at 2 h of the following entry: "CCN(C)S(=O)(=O)Nc1ccc(F)c(Oc2ccc3ncn([C@H]4COC5(CCN(C6CC7(C6)CN(c6cc8c(cc6F)c(N6CCC(=O)NC6=O)nn8C)C7)CC5)C4)c(=O)c3c2)c1C#N"
Reply: 5290

====

Tested on: A375-NRAS^Q61K cells
Experiment: CTGlo Cell Viability Assay, A375-NRAS^Q61K (A375.11) cells, 96 hours
Assay type: cell-based, human
Conditions: Homo sapiens, 96 h, A375.11 (A375-NRAS^Q61K) cells
// reported GI50 for each item listed

compound="CCN(C)S(=O)(=O)Nc1ccc(F)c(Oc2ccc3ncn([C@H]4COC5(CCC(N6CC7(CN(c8ccc(NC9CCC(=O)NC9=O)cc8F)C7)C6)CC5)C4)c(=O)c3c2)c1C#N (some centres unmarked)" measured_quantity=GI50 result="1000 to 10000 nM"

Ask: Supply measured GI50 of CN(CCO)S(=O)(=O)Nc1ccc(F)c(Oc2ccc3ncc(C4CC5(CCN(C6CC7(C6)CN(c6cc8c(cc6F)c(N6CCC(=O)NC6=O)nn8C)C7)CC5)C4)nc3c2)c1C#N (centres unmarked) in your reply.
Reply: > 10000 nM

Ask: Output GI50 of CCN(C)S(=O)(=O)Nc1ccc(F)c(Oc2ccc3ncn([C@@H]4C[C@@H]5CN(C6CCC(c7ccc(NC8CCC(=O)NC8=O)cc7F)CC6)C[C@@H]5C4)c(=O)c3c2)c1C#N (single isomer, unassigned)
Reply: 1000 to 10000 nM

Ask: Identify GI50 associated with the compound CCN(C)S(=O)(=O)Nc1ccc(F)c(Oc2ccc3ncc(OC4CC5(C4)CN(C4CCC(c6cc7c(cc6F)c(N6CCC(=O)NC6=O)nn7C)CC4)C5)nc3c2)c1C#N (single isomer, unassigned)
Reply: < 1000 nM

Ask: Give the reported value of GI50 for this record: Cn1nc(N2CCC(=O)NC2=O)c2cc(F)c(C3CCC(N4CCC5(CC4)CC(n4cnc6ccc(Oc7c(F)ccc(NS(=O)(=O)N8CC[C@@H](F)C8)c7C#N)cc6c4=O)C5)CC3)cc21 (single isomer, unassigned)
Reply: < 1000 nM

====

Catalogue of compounds with associated DC50
Biological target: BRAF V600E (Homo sapiens, UniProt P15056+Q96SW2, V600E)
Construct: knock-in of the HiBiT tag to the endogenous BRAF V600E locus; host or cells: A375.10 (A375 clonal line, CRISPR HiBiT knock-in at the endogenous BRAF V600E locus)
Sequence (P15056 whole entry V600E): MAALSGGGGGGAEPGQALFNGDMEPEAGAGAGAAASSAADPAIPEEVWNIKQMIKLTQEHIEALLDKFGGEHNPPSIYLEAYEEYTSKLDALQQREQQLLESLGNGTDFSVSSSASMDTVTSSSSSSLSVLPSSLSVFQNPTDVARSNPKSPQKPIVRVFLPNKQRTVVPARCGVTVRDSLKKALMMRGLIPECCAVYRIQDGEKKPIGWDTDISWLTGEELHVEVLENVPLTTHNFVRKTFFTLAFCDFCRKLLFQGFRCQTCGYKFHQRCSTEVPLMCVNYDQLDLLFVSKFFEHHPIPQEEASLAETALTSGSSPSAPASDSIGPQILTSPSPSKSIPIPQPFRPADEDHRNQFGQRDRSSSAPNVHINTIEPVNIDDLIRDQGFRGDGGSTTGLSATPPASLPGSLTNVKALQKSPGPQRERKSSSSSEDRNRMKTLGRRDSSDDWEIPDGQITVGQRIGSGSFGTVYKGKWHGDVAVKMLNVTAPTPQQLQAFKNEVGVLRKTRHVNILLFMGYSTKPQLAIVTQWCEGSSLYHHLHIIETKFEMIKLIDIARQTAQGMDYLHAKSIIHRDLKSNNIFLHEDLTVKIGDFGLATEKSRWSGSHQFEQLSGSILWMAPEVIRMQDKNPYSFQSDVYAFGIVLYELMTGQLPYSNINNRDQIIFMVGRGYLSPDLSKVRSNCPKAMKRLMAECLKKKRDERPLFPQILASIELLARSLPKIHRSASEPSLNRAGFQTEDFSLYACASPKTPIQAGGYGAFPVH
Sequence (Q96SW2 whole entry): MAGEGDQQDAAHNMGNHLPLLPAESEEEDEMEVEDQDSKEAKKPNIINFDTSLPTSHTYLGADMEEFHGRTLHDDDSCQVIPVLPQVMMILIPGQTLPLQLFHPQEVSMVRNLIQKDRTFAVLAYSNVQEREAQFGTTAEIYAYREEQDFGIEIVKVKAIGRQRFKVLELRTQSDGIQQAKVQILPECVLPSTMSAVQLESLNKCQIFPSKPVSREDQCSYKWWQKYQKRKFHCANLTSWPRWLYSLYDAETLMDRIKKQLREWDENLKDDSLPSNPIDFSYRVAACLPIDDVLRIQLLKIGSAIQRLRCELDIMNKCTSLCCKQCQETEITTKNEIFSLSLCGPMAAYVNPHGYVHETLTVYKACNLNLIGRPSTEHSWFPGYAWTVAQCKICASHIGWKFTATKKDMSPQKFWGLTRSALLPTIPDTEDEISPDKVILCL
Sequence (Q16531 whole entry partner): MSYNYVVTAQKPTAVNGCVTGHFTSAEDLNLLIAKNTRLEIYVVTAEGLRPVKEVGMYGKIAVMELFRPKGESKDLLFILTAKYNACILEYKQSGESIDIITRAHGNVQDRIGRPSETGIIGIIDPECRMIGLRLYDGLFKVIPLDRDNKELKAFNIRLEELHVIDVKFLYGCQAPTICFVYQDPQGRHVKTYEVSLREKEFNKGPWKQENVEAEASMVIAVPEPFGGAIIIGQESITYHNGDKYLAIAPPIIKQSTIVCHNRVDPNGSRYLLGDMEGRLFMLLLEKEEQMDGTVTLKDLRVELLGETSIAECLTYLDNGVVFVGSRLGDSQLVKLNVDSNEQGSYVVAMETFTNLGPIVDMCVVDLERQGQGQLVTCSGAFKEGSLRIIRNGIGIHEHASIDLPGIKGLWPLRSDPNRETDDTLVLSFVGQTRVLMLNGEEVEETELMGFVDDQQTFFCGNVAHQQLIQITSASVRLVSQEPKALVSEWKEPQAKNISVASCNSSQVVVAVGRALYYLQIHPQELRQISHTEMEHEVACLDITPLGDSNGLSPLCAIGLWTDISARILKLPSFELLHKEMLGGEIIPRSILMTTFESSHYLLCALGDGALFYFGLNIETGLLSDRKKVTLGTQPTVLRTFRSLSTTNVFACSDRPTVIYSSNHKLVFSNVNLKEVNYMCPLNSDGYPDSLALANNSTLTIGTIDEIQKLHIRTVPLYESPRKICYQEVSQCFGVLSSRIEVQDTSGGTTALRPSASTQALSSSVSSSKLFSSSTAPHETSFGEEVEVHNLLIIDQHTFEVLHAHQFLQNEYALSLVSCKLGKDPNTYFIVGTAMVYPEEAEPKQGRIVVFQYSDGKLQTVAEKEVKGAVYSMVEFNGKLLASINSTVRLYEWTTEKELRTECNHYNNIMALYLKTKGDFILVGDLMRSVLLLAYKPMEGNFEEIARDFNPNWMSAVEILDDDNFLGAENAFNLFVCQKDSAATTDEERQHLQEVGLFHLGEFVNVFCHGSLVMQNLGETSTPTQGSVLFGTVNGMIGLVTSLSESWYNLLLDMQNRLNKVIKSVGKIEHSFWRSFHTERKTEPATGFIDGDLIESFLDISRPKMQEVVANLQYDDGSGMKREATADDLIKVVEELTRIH
Experiment: BRAF V600E HiBiT Degradation Assay
Assay type: cell-based
Conditions: A375.10 cells, HiBiT, BRAF V600E, 24 hours; read-out: HiBiT-Degradation A375.10 BRAF 24 hours IP

compound="CCN(C)S(=O)(=O)Nc1ccc(F)c(Oc2ccc3ncn(C4CC5(C4)CN(C4CC6(C4)CN(c4cc7c(cc4F)c(N4CCC(=O)NC4=O)nn7C)C6)C5)c(=O)c3c2)c1C#N (stereo not drawn) [Compound 305]" measured_quantity=DC50 result="< 1000 nM"
compound="CCN(C)S(=O)(=O)Nc1ccc(F)c(Oc2ccc3ncn([C@H]4COC5(CCC(N6CCC(c7cc8c(cc7F)c(N7CCC(=O)NC7=O)nn8C)C(F)(F)C6)CC5)C4)c(=O)c3c2)c1C#N (single isomer, unassigned) [Compound 39]" measured_quantity=DC50 result="< 1000 nM"

Ask: Provide BRAF V600E (Homo sapiens, UniProt P15056+Q96SW2, V600E) DC50 reading for CCN(C)S(=O)(=O)Nc1ccc(F)c(Oc2ccc3ncn([C@H]4COC5(CCN(C6CC(c7ccc(NC8CCC(=O)NC8=O)cc7F)C6)CC5)C4)c(=O)c3c2)c1C#N (single isomer, unassigned) [Compound 62] .
Reply: < 1000 nM

====

Assay: Example 6 pharmacokinetics assay for PKPD study (plasma, tumor, liver)
Assay type: in vivo, BALB/c nude mice
Conditions: mouse, tumor, po; 100 mg/kg, single dose; 1 h; read-out: Concentration in Tumor (mean ± SEM)
MEASURED_QUANTITY: concentration at 1 h (ng/g)
Field: numeric (ng/g). Do not append units.

Ask: Indicate its recorded concentration at 1 h; the compound in question is CC(C)(C)c1nc(-c2cccc(NS(=O)(=O)c3c(F)cccc3F)c2F)c(-c2ccnc(N)n2)s1 [Dabrafenib, dabrafenib, reference compound]
Reply: 225

====

Assay: Pharmacokinetics in female BALB/c nude mice bearing A375 xenografts, 1 day dosing (PK and PD study): plasma, tumor and brain concentrations, AUC
Type: in vivo
Conditions: mouse, plasma, po, 6 mg/kg, 6 mg/kg p.o. QD × 1 day; 8 h; read-out: Mean Concentration in Plasma ± SEM
MEASURED_QUANTITY: concentration at 8 h (µg/mL)
Give the value, in units of µg/mL, as a plain number.

Ask: Indicate its recorded concentration at 8 h; the compound in question is CCN(C)S(=O)(=O)Nc1ccc(F)c(Oc2ccc3ncn([C@H]4COC5(CCN(C6CC7(C6)CN(c6cc8c(cc6F)c(N6CCC(=O)NC6=O)nn8C)C7)CC5)C4)c(=O)c3c2)c1C#N [Compound 26]
Reply: 5.72

====

Target: BRAF V600E (Homo sapiens, UniProt P15056+Q96SW2, V600E)
Construct: knock-in of the HiBiT tag to the endogenous BRAF V600E locus; host or cells: A375.10 (A375 clonal line, CRISPR HiBiT knock-in at the endogenous BRAF V600E locus)
Assay: BRAF V600E HiBiT Degradation Assay
Assay type: cell-based
Conditions: A375.10 cells, HiBiT, BRAF V600E, 24 hours; read-out: HiBiT-Degradation A375.10 BRAF 24 hours Emax
MEASURED_QUANTITY: Emax

Observe how each entry below is paired with its result.
compound=CCN(C)S(=O)(=O)Nc1ccc(F)c(Oc2ccc3ncn([C@H]4COC5(CCN(C6CC7(C6)CN(c6cc8c(cc6F)c(N6CCC(=O)NC6=O)nn8C)C7)CC5)C4)c(=O)c3c2)c1C#N measured_target="BRAF V600E (Homo sapiens, UniProt P15056+Q96SW2, V600E)" result="< 50%"
compound="CCN(C)S(=O)(=O)Nc1ccc(F)c(Oc2ccc3ncc([C@H]4COC5(CCN(C6CCC(c7cc8c(cc7F)c(N7CCC(=O)NC7=O)nn8C)CC6)CC5)C4)nc3c2)c1C#N (single isomer, unassigned)" measured_target="BRAF V600E (Homo sapiens, UniProt P15056+Q96SW2, V600E)" result="< 50%"

Ask: Give Emax only, for CCN(C)S(=O)(=O)Nc1ccc(F)c(Oc2ccc3ncn([C@H]4COC5(CCN(C6CCC(c7ccc(N[C@@H]8CCC(=O)NC8=O)cc7F)CC6)CC5)C4)c(=O)c3c2)c1C#N (single isomer, unassigned) , using BRAF V600E (Homo sapiens, UniProt P15056+Q96SW2, V600E) data.
Reply: < 50%

====

Test: Pharmacokinetics after 21 days dosing in the efficacy study (plasma, tumor and brain concentrations; plasma AUC at steady state), Example 14
Assay type: in vivo, female BALB/c nude mice
Conditions: mouse, plasma, po; 100 mg/kg p.o. QD x 21 days; 10 h; mean ± SEM
MEASURED_QUANTITY: concentration at 10 h (ng/mL)
Provide only the numeric value, understood in ng/mL.

Ask: For CC(C)(C)c1nc(-c2cccc(NS(=O)(=O)c3c(F)cccc3F)c2F)c(-c2ccnc(N)n2)s1 [Dabrafenib, dabrafenib, reference compound] , write its concentration at 10 h.
Reply: 24

====

Experiment: Pharmacokinetics in female BALB/c nude mice bearing A375 xenografts, 1 day dosing (PK and PD study): plasma, tumor and brain concentrations, AUC
Format: in vivo
Conditions: mouse, tumor, po; 1.5 mg/kg p.o. BID × 1 day; read-out: Tumor AUC at 24 hours, Average
MEASURED_QUANTITY: AUC at 24 h

Ask: Return reported AUC at 24 h. Input compound: "CCN(C)S(=O)(=O)Nc1ccc(F)c(Oc2ccc3ncn([C@H]4COC5(CCN(C6CC7(C6)CN(c6cc8c(cc6F)c(N6CCC(=O)NC6=O)nn8C)C7)CC5)C4)c(=O)c3c2)c1C#N"
Reply: 5750 ng·h/mL
